Attribution: patent US11801252B2

assay: In vivo pharmacokinetics study in healthy subjects, 75-450 mg single dose, fasting (Test Example 2); design: species or system human (healthy male subjects); conditions: human, blood; after Formulation 5, dose group A 75 mg (equal SNAC content), single oral, fasting, healthy male subjects, N = 16; Mean ± SD; read-out: MRT0-∞ of SNAC
Measured Metric: MRT inf (h)

* O=C([O-])CCCCCCCNC(=O)c1ccccc1O.[Na+] [SNAC, sodium 8-(salicylamido)caprylate] | 1.58

====

experiment: Pharmacokinetics study in male cynomolgus monkeys (Test Example 1); type: in vivo; conditions: cynomolgus monkey, plasma, po, 300 mg/animal, after Formulation 2 (2 tablets, 300 mg/animal) PO, fasting, mean ± SD, n = 8, read-out: Cmax of SNAC in plasma
Measured Metric: Cmax (ng/mL)

- O=C([O-])CCCCCCCNC(=O)c1ccccc1O.[Na+] [SNAC, sodium 8-(salicylamido)caprylate]: 34200

====

assay: In vivo food effects study in healthy subjects (Test Example 3); parameters: species or system human (healthy male subjects); settings: male, human, plasma, po, 300 mg, after Test Formulation 300 mg single oral, fasting state, N = 23, Mean ± SD, read-out: AUC0-∞ of SNAC
Measured Metric: AUC(0-inf) (µg·h/mL)

• O=C([O-])CCCCCCCNC(=O)c1ccccc1O.[Na+] [SNAC, sodium 8-(salicylamido)caprylate] = 1.25

====

assay: In vivo food effects study in healthy subjects (Test Example 3); design: species or system human (healthy male subjects); settings: male, human, plasma, po, 300 mg, after Test Formulation 300 mg single oral, fasting state, N = 23, Mean ± SD, read-out: Cmax of SNAC
Measured Metric: Cmax (ng/mL)

* O=C([O-])CCCCCCCNC(=O)c1ccccc1O.[Na+] [SNAC, sodium 8-(salicylamido)caprylate] | 1580

====

test: In vivo pharmacokinetics study in healthy subjects, 75-450 mg single dose, fasting (Test Example 2); design: species or system human (healthy male subjects); conditions: human, plasma; after Formulation 5, dose group B 150 mg (equal SNAC content), single oral, fasting, healthy male subjects, N = 15; median
Measured Metric: Tmax

• O=C([O-])CCCCCCCNC(=O)c1ccccc1O.[Na+] [SNAC, sodium 8-(salicylamido)caprylate] = 30 min

====

Test: In vivo pharmacokinetics study in healthy subjects, 75-450 mg single dose, fasting (Test Example 2)
Design: species or system human (healthy male subjects)
Details: human, blood; after Formulation 5, dose group C 300 mg (equal SNAC content), single oral, fasting, healthy male subjects, N = 15; Mean ± SD; read-out: MRT0-∞ of SNAC
Method: To study the pharmacokinetic characteristics of 75 mg, 150 mg, 300 mg and 450 mg doses of abiraterone acetate tablets in healthy subjects after a single oral administration under fasting state. A single-center, open-label, sequential trial design was applied. […] The blood concentration of abiraterone at different time points after dosing was determined by HPLC-MS/MS. Pharmacokinetic parameters were calculated using non-compartmental model and statistically analyzed. […]
Measured Metric: MRT inf

• O=C([O-])CCCCCCCNC(=O)c1ccccc1O.[Na+] [SNAC, sodium 8-(salicylamido)caprylate] = 1.55 h
